# studyTarget: GCH-1 (Homo sapiens, UniProt P30793)
# Sequence (P30793 whole entry, species assumed): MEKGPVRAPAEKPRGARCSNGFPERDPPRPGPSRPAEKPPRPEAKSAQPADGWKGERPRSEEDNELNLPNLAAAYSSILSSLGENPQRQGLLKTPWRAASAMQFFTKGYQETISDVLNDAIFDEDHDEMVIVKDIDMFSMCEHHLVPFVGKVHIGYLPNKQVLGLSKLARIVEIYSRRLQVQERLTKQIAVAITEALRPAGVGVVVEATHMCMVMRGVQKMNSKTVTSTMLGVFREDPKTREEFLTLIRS
# assayRemarks: LC/MS assay monitoring GTP consumption and neopterin formation by GCH-1
# Format: biochemical
# runConditions: Table 8, LC/MS assay; 2 μM GCH-1, 120 μM GTP, 1 hour at 37° C.; read-out: IC50
# Method: This method is based on transformations known in the art (see, for example, Xie et al., J. Biol. Chem. 273(33):21091-21098, 1998). The LC-MS assay is carried out by the following steps. (1) GCH-1 reaction • 2 μM GCH-1, 120 μM GTP, 1 hour incubation at 37° C. (2) Termination of GCH-1 reaction by de-phosphorylation • The reaction is stopped by the addition of excess alkaline phosphatase (2 units/sample) • 1 hour incubation at 37° C. […]
measuredProperty: IC50 (µM)
Value expressed in µM; do not type the unit.

[[record]]
chemicalsmiles = "CCCSc1nc2c(=O)[nH]c(N)nc2[nH]1"
studytarget = "GCH-1 (Homo sapiens, UniProt P30793)"
measuredproperty = "IC50"
quantitativeresult = 14


Incoming: Reported IC50 for CCOc1ccccc1NC(=O)CSc1nc2c(O)nc(N)nc2[nH]1 : what is it?
Outgoing: 40

Incoming: Reported IC50 for COCCSc1nc2c(=O)[nH]c(N)nc2[nH]1 : what is it?
Outgoing: 25

Incoming: Reported IC50 for Nc1nc2[nH]c(SCC3CCOCC3)nc2c(=O)[nH]1 : what is it?
Outgoing: 39

Incoming: Reported IC50 for CCCSc1nc2c(=O)[nH]c(N)nc2n1C : what is it?
Outgoing: 85

###

Items are presented alongside their recorded IC50.
# studyTarget: GCH-1 (Homo sapiens, UniProt P30793)
# assayRemarks: LC/MS assay monitoring GTP consumption and neopterin formation by GCH-1
# Type: biochemical
# runConditions: Table 8, LC/MS assay; 2 μM GCH-1, 120 μM GTP, 1 hour at 37° C.; read-out: IC50
Value expressed in µM; do not type the unit.

[[record]]
chemicalsmiles = "Nc1nc2[nH]c(N)nc2c(=O)[nH]1"
unitsofmeasure = "µM"
quantitativeresult = 27

[[record]]
chemicalsmiles = "Nc1nc2[nH]ccc2c(=O)[nH]1"
unitsofmeasure = "µM"
quantitativeresult = 43

[[record]]
chemicalsmiles = "Cn1c(=S)[nH]c2nc(N)[nH]c(=O)c21"
unitsofmeasure = "µM"
quantitativeresult = 76


We now examine a further molecule.
Incoming: Reported IC50 for Cn1ccc2c(=O)[nH]c(N)nc21 : what is it?
Outgoing: 193
